# assay_remarks: Inhibition of wildtype Acinetobacter baumannii MsbA preincubated for 30 mins followed by ATP addition and measured after 1 hrs by Transcreener ADP2 F1 assay
With a cut-off of 800 nM, any EC50 strictly below it is called YES; any EC50 meeting it or above is called NO.

Previously resolved entries follow.
CCCCc1ccc(S(=O)(=O)Nc2ccc(NC(=O)CCC(=O)Nc3cccc(C(=O)O)c3)cc2C(=O)O)cc1 NO
CCCCc1ccc(S(=O)(=O)Nc2ccc(NC(=O)CCC(=O)Nc3ccc(NS(=O)(=O)c4ccc(CCCC)cc4)c(C(=O)NC)c3)cc2C(=O)O)cc1 YES
CCCCc1ccc(S(=O)(=O)Nc2ccc(NC(=O)CCC(=O)Nc3ccc(N)c(C(=O)O)c3)cc2C(=O)O)cc1 NO
O=C(CCCOc1ccc(NS(=O)(=O)c2ccc(Oc3ccc(Cl)cc3)nc2)c(C(=O)O)c1)Nc1ccc(NS(=O)(=O)c2ccc(Oc3ccc(Cl)cc3)nc2)c(C(=O)O)c1 YES

INPUT: Lab log: compare recorded EC50 with 800 nM; is it strictly lower for CCCCc1ccc(S(=O)(=O)Nc2ccc(NC(=O)CCC(=O)Nc3ccc(NS(=O)(=O)c4ccc(CCCC)cc4)c(P(=O)(O)O)c3)cc2C(=O)O)cc1 ?
OUTPUT: YES

INPUT: hey, is EC50 for CCCCc1ccc(S(=O)(=O)N(C)c2ccc(NC(=O)CCC(=O)Nc3ccc(N(C)S(=O)(=O)c4ccc(CCCC)cc4)c(C(=O)O)c3)cc2C(=O)O)cc1 lower than 800 nM or not?
OUTPUT: NO

---

# Tested on: Acinetobacter baumannii
# assay_remarks: Antibacterial activity against Acinetobacter baumannii ATCC19606 incubated for 18 to 20 hrs in presence of 1% of human serum by microbroth dilution method
# Format: functional
# condition_parameters: time 18-20 hrs
experimental_endpoint: MIC95

CCCCc1ccc(S(=O)(=O)Nc2ccc(N(C)C(=O)CCC(=O)N(C)c3ccc(NS(=O)(=O)c4ccc(CCCC)cc4)c(C(=O)O)c3)cc2C(=O)O)cc1 > 200 µM
CCCCc1ccc(S(=O)(=O)Nc2ccc(NC(=O)CCC(=O)Nc3ccc(NS(=O)(=O)c4ccc(CCCC)cc4)c(C(N)=O)c3)cc2C(N)=O)cc1 > 200 µM
CCCCc1ccc(S(=O)(=O)Nc2ccc(NC(=O)CCC(=O)Nc3ccc(N)c(C(=O)O)c3)cc2C(=O)O)cc1 > 200 µM

INPUT: Using the record for CCCCc1ccc(S(=O)(=O)Nc2ccc(NC(=O)CCC(=O)Nc3ccc(NS(=O)(=O)c4ccc(CCCC)cc4)c(C(=O)O)c3)cc2CO)cc1 , state its measured MIC95.
OUTPUT: > 200 µM

---

# assay_remarks: Inhibition of wildtype Acinetobacter baumannii MsbA preincubated for 30 mins followed by ATP addition and measured after 1 hrs by Transcreener ADP2 F1 assay
experimental_endpoint: EC50

CCCCc1ccc(S(=O)(=O)Nc2ccc(N(C)C(=O)CCC(=O)N(C)c3ccc(NS(=O)(=O)c4ccc(CCCC)cc4)c(C(=O)O)c3)cc2C(=O)O)cc1 > 198 µM

Would you mind giving EC50 for every compound in the list below?
1. CCCCc1ccc(S(=O)(=O)Nc2ccc(NC(=O)CCC(=O)Nc3ccc(NS(=O)(=O)c4ccc(CCCC)cc4)c(C(=O)OCC)c3)cc2C(=O)OCC)cc1
2. O=C(CCCOc1ccc(NS(=O)(=O)c2ccc(-c3ccccc3)s2)c(C(=O)O)c1)Nc1ccc(NS(=O)(=O)c2ccc(-c3ccccc3)s2)c(C(=O)O)c1
3. O=C(O)c1cc(CN2CC(Oc3ccc(NS(=O)(=O)c4cnn(-c5ccc(F)cc5)c4)c(C(=O)O)c3)C2)ccc1NS(=O)(=O)c1cnn(-c2ccc(F)cc2)c1
4. CCCCc1ccc(S(=O)(=O)Nc2ccc(C(=O)NCCNC(=O)c3ccc(NS(=O)(=O)c4ccc(CCCC)cc4)c(C(=O)O)c3)cc2C(=O)O)cc1

OUTPUT:
1: > 198 µM; 2: < 0.01 µM; 3: 0.069 µM; 4: > 198 µM

For each entry beneath this line, provide reported EC50.
1. O=C(O)c1cc(CN[C@H]2C[C@@H](CNc3ccc(NS(=O)(=O)c4cnn(-c5ccc(Cl)cc5)c4)c(C(=O)O)c3)C2)ccc1NS(=O)(=O)c1cnn(-c2ccc(Cl)cc2)c1
2. Cc1c(S(=O)(=O)Nc2ccc(NC(=O)CCCOc3ccc(NS(=O)(=O)c4cnn(-c5ccc(Cl)cc5)c4C)c(C(=O)O)c3)cc2C(=O)O)cnn1-c1ccc(Cl)cc1
3. CCCCc1ccc(S(=O)(=O)Nc2ccc(NCCCCNc3ccc(NS(=O)(=O)c4ccc(CCCC)cc4)c(C(=O)O)c3)cc2C(=O)O)cc1

OUTPUT:
1. 2.38 µM
2. < 0.01 µM
3. 0.623 µM
